measurement-description: Cell Viability - SH-SY5Y (AID 544);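 note: cells exposed to compound for 40 hours; nearly all actives have a fitted effect of over 55% in size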
settings: SH-SY5Y neuroblastoma cell viability
Records with an inconclusive call do not appear. The source made the active and inactive calls. Calls come from the whole dose curve; as a rule, active = well fitted cell-killing curve with a large enough effect; inconclusive = small, poorly fitted or top-dose-only effect; inactive = flat fitted curve, though single readings scatter.
measured-metric: outcome

[[record]]
compound = "CCCCCNCCCCC"
measured_metric = "outcome"
recorded_measurement = "inactive"

[[record]]
compound = "Cc1cccc2cccnc12"
measured_metric = "outcome"
recorded_measurement = "inactive"

[[record]]
compound = "NS(=O)(=O)O"
measured_metric = "outcome"
recorded_measurement = "inactive"

[[record]]
compound = "C=Cc1ccccn1"
measured_metric = "outcome"
recorded_measurement = "inactive"

[[record]]
compound = "COC(=O)CS"
measured_metric = "outcome"
recorded_measurement = "inactive"

[[record]]
compound = "CC(=O)Nc1ccc(C)cc1"
measured_metric = "outcome"
recorded_measurement = "inactive"

[[record]]
compound = "Clc1ccccn1"
measured_metric = "outcome"
recorded_measurement = "inactive"

[[record]]
compound = "Cc1ccccc1C(N)=O"
measured_metric = "outcome"
recorded_measurement = "inactive"


Lab book: outcome of Cc1cc(C)cc(O)c1 noted as inactive

Lookup result for CC(=O)c1ccccc1[N+](=O)[O-] ; measured outcome: inactive

The value of outcome measured for the compound CCCCC(CC)C(=O)O (centres undefined) turned out to be inactive

Lab note: measured outcome of CCCCC(CC)CNCC(CC)CCCC (centres undefined) was inactive

Sure, the documented outcome for C=CCCCCCCC=C is inactive

Noted for CC(C)=C1CCC(C)CC1=O (centres undefined) : its outcome reads inactive

The compound identified as CCOc1ccc(NC(C)=O)cc1N registered its outcome at inactive

Data point: Nc1cc(Cl)c([N+](=O)[O-])cc1O ; outcome = inactive

Recorded outcome (compound O=C1OC(=O)c2c(Cl)c(Cl)c(Cl)c(Cl)c21 ): inactive

Field outcome (entry Nc1cccc([N+](=O)[O-])c1 ) reads inactive

Entry under test: Nc1c(Cl)cc(Cl)cc1Cl . Its outcome was inactive

Item: CNc1ccccc1 | outcome: inactive

====

measurement-description: Cell Viability - LYMP2-017 (AID 972);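 note: cells exposed to compound for 24 hours at 37 °C; % is set by controls: 0 for no effect and ±100 for the full control effect; nearly all actives have a fitted effect of over 55% in size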
settings: LYMP2-017 lymphoblastoid cell viability; series mostly up to 92.2 µM
Inconclusive results are not listed. Activity calls are given as the source filed them. Calls follow the shape of the dose curve; as a rule, active = well fitted cell-killing curve with a large enough effect; inconclusive = small, poorly fitted or top-dose-only effect; inactive = flat fitted curve, though single readings scatter.
measured-metric: outcome

[[record]]
molecule = "Cc1cccc2cccnc12"
measured_metric = "outcome"
recorded_measurement = "inactive"

[[record]]
molecule = "CN(C)CCCCl"
measured_metric = "outcome"
recorded_measurement = "inactive"

[[record]]
molecule = "NCCCCCCN"
measured_metric = "outcome"
recorded_measurement = "inactive"

[[record]]
molecule = "CC(=O)C1(C)CC2=C(CCCC2(C)C)CC1C (stereo unspecified)"
measured_metric = "outcome"
recorded_measurement = "inactive"

[[record]]
molecule = "C=CCCC"
measured_metric = "outcome"
recorded_measurement = "inactive"


Measured outcome of CC1CCCO1 (stereo unspecified) : inactive

GET /value?item= COc1ccc(N)c(C)c1 &field=outcome returns inactive

Sure, the documented outcome for Nc1cccc([N+](=O)[O-])c1 is inactive

So, C(=C/c1ccccc1)/c1ccccc1 ? Its outcome was inactive

Note to self: outcome recorded for CCC(C)(C)OC was inactive

For C=Cc1ccccn1 the molecule record lists outcome as inactive

The molecule COC(=O)CC#N showed outcome equal to inactive

The molecule listed as CC(=O)c1ccccn1 has a reported outcome of inactive

Entry under test: Cc1ccccc1C=O . Its outcome was inactive

Reported outcome of CC(C)(O)CCC(C)(C)O : inactive

Just so you know, measured outcome for CC(CCl)OC(C)CCl (stereo unspecified) came out at inactive

====

measurement-description: Cell Viability - LYMP2-011 (AID 969);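 note: cells exposed to compound for 24 hours; 0% = DMSO only and full inhibition = 92 µM tetraoctylammonium bromide; nearly all actives have a fitted effect of over 60% in size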
settings: LYMP2-011 lymphoblastoid cells viability; series mostly up to 92.2 µM
Records with an inconclusive call do not appear. Activity calls are given as the source filed them. Calls come from the whole dose curve; as a rule, active = well fitted cell-killing curve with a large enough effect; inconclusive = small, poorly fitted or top-dose-only effect; inactive = flat fitted curve, though single readings scatter.
measured-metric: outcome

// worked examples, outcome included
[[record]]
compound = "ON=C1CCCCC1"
recorded_measurement = "inactive"

[[record]]
compound = "CSc1ccc(C=O)cc1"
recorded_measurement = "inactive"

[[record]]
compound = "CC(C)Nc1ccccc1"
recorded_measurement = "inactive"

[[record]]
compound = "C=C(C)C(=O)OCC(C)C"
recorded_measurement = "inactive"

[[record]]
compound = "CCCCC(CC)COC(=O)CCCCC(=O)OCC(CC)CCCC (configuration not stated)"
recorded_measurement = "inactive"

[[record]]
compound = "O=C(O)c1ccccc1[N+](=O)[O-]"
recorded_measurement = "inactive"


Notebook: O=CNc1ccccc1 , outcome read as inactive

Lab note: measured outcome of C=C(C)C(N)=O was inactive

Record summary for Cc1ccc([N+](=O)[O-])c(N)c1 : reported outcome = inactive

Documented outcome of C1CCC2OC2C1 (configuration not stated) : inactive

Record Cc1ccc(CO)cc1 , field outcome: inactive

====

measurement-description: Cellular Toxicity (caspase-3) HUV-EC-C (AID 656);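 note: cells exposed to compound for 16 h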
settings: HUV-EC-C cells, caspase-3 activation (apoptosis), vehicle = 0, 100 µM tamoxifen = 100%; series mostly up to 92.2 µM
Calls of active or inactive are those of the source. Calls follow the shape of the dose curve; as a rule, active = well fitted curve in the direction sought with a large enough effect; inconclusive = small, poorly fitted or top-dose-only effect, or another doubt; inactive = no such curve, though single readings can be large or run the other way.
measured-metric: outcome

[[record]]
compound = "C1CCOC1"
recorded_measurement = "inactive"

[[record]]
compound = "O=Cc1ccc(CO)o1"
recorded_measurement = "inactive"

[[record]]
compound = "ClCCl"
recorded_measurement = "inactive"

[[record]]
compound = "Nc1cccc(O)c1"
recorded_measurement = "inactive"

[[record]]
compound = "CCC(C)(C)C"
recorded_measurement = "inactive"

[[record]]
compound = "O=C1C=CCCC1"
recorded_measurement = "inactive"


outcome reported for this compound C=C(C)C(=O)OCC(C)O (centres undefined) : inactive

So for CCCCCO , the logged outcome turned out to be inactive

Sure, the documented outcome for O=Cc1ccccc1Cl is inactive

====

measurement-description: Cellular Toxicity (caspase-3) Mesangial (AID 660);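 note: combined caspase 3 and 7 activity read by Caspase-Glo luminescence; cells exposed to compound for 16 h before the caspase read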
settings: mesangial cells, normalized: DMSO 0%, 100 µM tamoxifen 100%; at 91.7 µM (top of the series)
Active and inactive are the calls of the source. Calls follow the shape of the dose curve; as a rule, active = well fitted activation curve with a large enough effect; inconclusive = small, poorly fitted or top-dose-only effect; inactive = flat fitted curve, though single readings scatter.
Form entry, call: pick from active, inactive

Query :: For C=CCn1c(=O)n(CC=C)c(=O)n(CC=C)c1=O , what call appears in the results of this test?
Result :: inactive

Query :: Identify the outcome logged in this assay for the molecule shown: NC=O
Result :: inactive

Query :: Hi, do you know how CC(=O)c1cccc([N+](=O)[O-])c1 came out in this test?
Result :: inactive

Query :: What call does the record list for O=CNc1ccccc1 ?
Result :: inactive

Query :: Tell me the recorded outcome of this test for C(=C/c1ccccc1)/c1ccccc1 .
Result :: inactive

Query :: Just curious, what result did O=C1OC(=O)c2c(Br)c(Br)c(Br)c(Br)c21 get here?
Result :: inactive

Query :: # fetch the recorded call for CC1=C(/C=C/C(C)=C/C=C/C(C)=C\C=O)C(C)(C)CCC1 here
Result :: active

Query :: Just curious, what result did Nc1cc(S(=O)(=O)O)ccc1O get here?
Result :: inactive

Query :: Kindly provide the recorded test outcome for the following molecule: CC/C(C)=N/O
Result :: inactive

Query :: Could you kindly confirm the outcome this assay logged for Cc1ccc(C#N)cc1 ?
Result :: inactive

Query :: // return assay outcome for Cc1cc(C)cc(O)c1
Result :: inactive

Query :: For CC(=O)Nc1ccc(C)cc1 , which call appears in the assay record?
Result :: inactive

Query :: Tell me the assay call for CCOc1cc(OCC)c(C(C)=O)cc1OCC please.
Result :: inactive

Query :: I would be grateful if you could indicate the recorded call for Cc1cccc([N+](=O)[O-])c1C(=O)O .
Result :: inactive

Query :: Record request — test call for CCCCCCCCC
Result :: inactive

====

Provide the reported activation of each item.
measurement-description: qHTS assay for environmental chemicals that activate the Aryl hydrocarbon Receptor (AhR) signaling pathway (AID 651777); note: % of control where 0% means no effect; nearly all actives have a fitted effect of over 15% in size
settings: 1A2-DRE human hepatoma cells, luciferase, 24 h; active compounds read high
Results filed as inconclusive are left out.
Quick reminder: number only, in %, skip the unit.

Entry under test: Cc1ccc(Cl)cc1 . Its activation was -0.186

# activation of Cc1cc(C2(c3cc(C)c(O)cc3C)OS(=O)(=O)c3ccccc32)c(C)cc1O = 0.42

Looking up O=c1[nH][nH]c(=O)c2cc([N+](=O)[O-])ccc12 , I see its activation listed as 1.03

Entry OC(CCl)CCl ; activation = 0.26

Value of activation reported for the molecule C=C(C)C(=O)OCC(C)O (stereo not given) is 0.365
